Value source: patent US20110311550A1

TEST TARGET: T1, HCV E1E2 antigen, isolate JFH (hepatitis C virus, isolate JFH, UniProt Q99IB8 192-383; Q99IB8 384-750)
T1 construct: also called JFH-1
T1 sequence (Q99IB8 192-383 limits assumed, chain 1 of 2): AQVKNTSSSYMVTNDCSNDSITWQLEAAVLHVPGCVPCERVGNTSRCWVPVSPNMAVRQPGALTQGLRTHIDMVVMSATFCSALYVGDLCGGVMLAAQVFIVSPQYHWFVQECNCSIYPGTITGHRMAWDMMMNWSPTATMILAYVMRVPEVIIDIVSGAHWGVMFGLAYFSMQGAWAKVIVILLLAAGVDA
T1 sequence (Q99IB8 384-750 limits assumed, chain 2 of 2): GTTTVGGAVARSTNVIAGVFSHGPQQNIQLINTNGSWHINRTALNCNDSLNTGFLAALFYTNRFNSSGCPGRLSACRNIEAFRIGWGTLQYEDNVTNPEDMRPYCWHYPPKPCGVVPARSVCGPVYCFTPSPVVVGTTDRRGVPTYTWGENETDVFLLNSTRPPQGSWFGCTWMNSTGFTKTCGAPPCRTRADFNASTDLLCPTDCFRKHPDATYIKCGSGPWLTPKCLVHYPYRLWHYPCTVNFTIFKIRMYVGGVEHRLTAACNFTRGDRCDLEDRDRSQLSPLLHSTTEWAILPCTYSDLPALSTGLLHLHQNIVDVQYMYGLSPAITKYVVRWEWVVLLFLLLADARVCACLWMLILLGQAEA
EXPERIMENT: ELISA, Fab on E1E2 antigen
PARAMETER: OD 450 nm (OD 450 nm)

• Fab Q2 (Fab, V domains shown) VH: VQLLEQSGAEVKKPGASVKVSCKASGYTFTNNGLNWVRQAPGQGLEWMGWISPYNGDTDFAHKFQGRISMTTDTSTNTAYMELRSLRSDDTAVYYCARDRNSAGGTWLFRDPPPGSTFFDSWGQGSLVTVSS VL: ELTQSPASLSLSPGGSATLACRASRGVNSNLAWYHQKPGQAPRLLIYSASTRATGIPGRFSGSGFGTEFTLTINNLQSDDFGVYYCQQYDDTPQITFGQGTRLDIKR = 0.18
• Fab N4 (Fab, V domains shown) VH: VQLLEQSGPEVKKPGDSLRISCKMSGDSLVTTWIGWVRQKPGQGLEWMGIINPGDSSTNIYPGDSATRYGPSFQGQVTISIDKSTSTAYLQWNNVKASDTGIYYCARHVPVPISGTFLWREREMHDFGYFDDWGQGTLVIVSS VL: ELTLTQSPGTLSLSPGERATLSCRASQSVSNNYLAWYQQKPGQAPRLLIYGASSRATGIPDRFSGSGSGTGFTLIISRLEPEDFAVYYCQQYGSSSITFGQGTRLEIKR = 1.57
• Fab N2 (Fab, V domains shown) VH: VQLLEQSGPEVKKPGDSLRISCKMSGDSLVTTWIGWVRQKPGQGLEWMGIINPGDSSTNIYPGDSATRYGPSFQGQVTISIDKSTSTAYLQWNTVKPSDTGIYYCARHVPVPISGTFLWREREMHDFGYFDDWGQGTLVIVSS VL: ELTQSPGTLSLFPGERATLSCRASQSILGRYLAWYQQKGGRAPRLLIFGASKRATGIPDRFSGSGSGTDFTLTIGRLEPEDFAVYYCQHYGSSITFGQGTRLDIKR = 1.34
• Fab R1 (Fab, V domains shown) VH: VQLLEQSGAEVKKPGASVKVSCKASGYTFSIYGVAWVRQAPGQGLEWMGWISPQNGDTHSPQKFQGRLTMTTDTSTSTAYMELRSLRSDDTAVYFCARDYGVNFGGGSEHNLDYWGRGTRVTVSS VL: ELTQSPLSLPVTPGEPASISCRSSYSLLHINGYKYLDWYLQRPGQSPQLLIYLGSNRAPGVPDRFSGSGSGTSFTLKISRVEAEDVGVYYCMQSLQAPWTFGQGTKVEMKR = 0
